# targetUnderTest: T1, recombinant hIL-6R protein, monomeric form (human, UniProt P08887 20-358)
# T1 construct: also called monomeric hIL-6R; Human IL6R
# T1 sequence: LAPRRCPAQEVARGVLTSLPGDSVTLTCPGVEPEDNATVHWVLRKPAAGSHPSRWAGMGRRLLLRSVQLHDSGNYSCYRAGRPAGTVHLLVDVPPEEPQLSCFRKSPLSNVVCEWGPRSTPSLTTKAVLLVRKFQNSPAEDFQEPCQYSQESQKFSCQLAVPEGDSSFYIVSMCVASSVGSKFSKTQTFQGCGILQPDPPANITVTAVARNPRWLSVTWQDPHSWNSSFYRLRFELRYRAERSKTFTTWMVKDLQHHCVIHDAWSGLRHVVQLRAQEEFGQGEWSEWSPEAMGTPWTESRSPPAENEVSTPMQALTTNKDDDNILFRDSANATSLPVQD
# experimentSummary: SPR (BIAcore), antibody captured on goat anti-human Fc, monomeric hIL-6R 1.56-12.5 nM
I'd appreciate it if you could supply Kd values for the items below.
State the answer as a number, implicitly in nM.

Short answer for VQ8A9-6 hIgG1 (antibody, V domains shown, Human IgG1 constant region) VH: EVQLVESGGNLVQPGRSLRLSCAASGFIFDDYAMHWVRQAPGKGLEWVSGISWNSGSIGYADSVKGRFTISRDNAKNSLYLQMNSLRAEDTALYYCAKDGGSSWLPFVYYYGMDVWGQGTTVTVSS VL: EIVMTQSPATLSVSPGERATLSCRASQSISSNFAWYQQKPGQAPRLLIYGASTRATGIPARFSGSGSGTDFTLTISSLQSEDFAVYYCQQYSSWPPYTFGQGTKLEIK : Kd was 0.238

Short answer for VQ8F11-21 modhIgG4 (antibody, V domains shown, Modified human IgG4 constant region; also called VQ8F11-21 modified human IgG4) VH: EVQLVESGGGLVQPGRSLRLSCAASRFTFDDYAMHWVRQAPGKGLEWVSGISWNSGRIGYADSVKGRFTISRDNAENSLFLQMNGLRAEDTALYYCAKGRDSFDIWGQGTMVTVSS VL: DIQMTQSPSSVSASVGDRVTITCRASQGISSWLAWYQQKPGKAPKLLIYGASSLESGVPSRFSGSGSGTDFTLTISSLQPEDFASYYCQQANSFPYTFGQGTKLEIK : Kd was 0.053

Short answer for VQ8F11-21 hIgG1 (antibody, V domains shown) VH: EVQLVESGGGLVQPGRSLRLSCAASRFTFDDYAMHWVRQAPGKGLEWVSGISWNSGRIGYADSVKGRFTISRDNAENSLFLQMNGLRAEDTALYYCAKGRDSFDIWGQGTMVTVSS VL: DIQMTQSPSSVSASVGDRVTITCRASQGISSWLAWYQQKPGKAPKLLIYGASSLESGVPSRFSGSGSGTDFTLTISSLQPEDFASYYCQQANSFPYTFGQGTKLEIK : Kd was 0.073

Values compiled from patent US20070280945A1.
